# experimentalTarget: recombinant human AMPK complex, containing α2β1γ2 (Homo sapiens, UniProt P54646+Q9Y478)
# Construct: hsAMPKα2-552-His, hsAMPKβ1-2-270 and hsAMPKγ-2-569 respectively; hsAMPKβ1-2-270; hsAMPKγ-2-569; His (C); made in house; host or cells: Spodoptera frugiperda Sf21 (baculovirus)
# Sequence (P54646 2-552): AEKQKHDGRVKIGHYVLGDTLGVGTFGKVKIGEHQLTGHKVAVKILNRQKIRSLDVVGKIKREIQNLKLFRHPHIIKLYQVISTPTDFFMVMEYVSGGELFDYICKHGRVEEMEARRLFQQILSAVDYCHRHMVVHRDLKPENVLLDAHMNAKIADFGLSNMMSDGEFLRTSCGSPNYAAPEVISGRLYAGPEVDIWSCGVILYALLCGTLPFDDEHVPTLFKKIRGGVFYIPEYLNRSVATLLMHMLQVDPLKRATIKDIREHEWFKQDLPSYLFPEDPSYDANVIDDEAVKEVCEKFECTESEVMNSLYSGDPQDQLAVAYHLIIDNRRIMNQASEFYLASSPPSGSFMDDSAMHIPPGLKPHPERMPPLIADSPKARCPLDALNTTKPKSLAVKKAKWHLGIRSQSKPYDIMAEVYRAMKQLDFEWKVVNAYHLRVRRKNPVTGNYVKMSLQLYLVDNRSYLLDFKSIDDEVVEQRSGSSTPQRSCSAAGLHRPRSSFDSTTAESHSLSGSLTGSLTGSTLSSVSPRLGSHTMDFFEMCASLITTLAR
# Sequence (Q9Y478 2-270): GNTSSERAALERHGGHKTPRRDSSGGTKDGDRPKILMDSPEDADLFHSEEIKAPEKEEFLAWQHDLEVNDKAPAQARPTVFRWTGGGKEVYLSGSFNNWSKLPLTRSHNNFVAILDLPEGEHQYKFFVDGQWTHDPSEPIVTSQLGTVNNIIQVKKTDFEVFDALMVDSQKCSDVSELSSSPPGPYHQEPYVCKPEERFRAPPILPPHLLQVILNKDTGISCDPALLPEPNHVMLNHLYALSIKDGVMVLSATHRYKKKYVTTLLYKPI
# Sequence (Q9UGJ0 2-569 partner limits assumed): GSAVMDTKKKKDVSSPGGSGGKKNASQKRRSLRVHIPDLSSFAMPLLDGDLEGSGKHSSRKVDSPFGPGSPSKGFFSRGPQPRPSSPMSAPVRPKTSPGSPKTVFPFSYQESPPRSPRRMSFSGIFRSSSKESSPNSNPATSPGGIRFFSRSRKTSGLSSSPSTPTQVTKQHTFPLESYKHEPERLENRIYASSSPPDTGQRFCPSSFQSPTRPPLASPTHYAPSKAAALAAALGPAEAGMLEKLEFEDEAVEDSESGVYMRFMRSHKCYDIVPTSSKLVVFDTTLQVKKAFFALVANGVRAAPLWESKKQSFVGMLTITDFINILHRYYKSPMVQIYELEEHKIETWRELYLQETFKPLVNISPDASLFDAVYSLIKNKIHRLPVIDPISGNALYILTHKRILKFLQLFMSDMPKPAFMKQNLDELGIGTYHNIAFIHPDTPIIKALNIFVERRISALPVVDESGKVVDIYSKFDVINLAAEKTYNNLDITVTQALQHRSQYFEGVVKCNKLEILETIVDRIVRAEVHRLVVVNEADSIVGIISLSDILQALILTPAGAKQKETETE
# protocolSummary: AMPK in vitro activation assay (HTRF)
# Assay type: biochemical
# studyConditions: potentiation of AMPK activity as percent over the basal signal (without compound)
Listed here: items and their measured Emax.

| molecule | Emax |
| --- | --- |
| O=C1Nc2cc(Cl)c(-c3ccc(N4CCOCC4)cc3)cc2C1=C(O)c1ccccc1F | 112% |
| O=C1Nc2cc(Cl)c(-c3ccc(C4(CO)CC4)cc3)cc2C1=C(O)c1ccncc1F | 191% |
| COc1cccc(-c2ccc(-c3cc4c(cc3Cl)NC(=O)C4=C(O)c3cc(OC(C)C)no3)cc2)c1O | 165% |
| CC(C)(C)c1cc(C(O)=C2C(=O)Nc3cc(Cl)c(-c4ccc(C5(CO)CC5)cc4)cc32)on1 | 124% |
| Cn1ccc(C(O)=C2C(=O)Nc3cc(Cl)c(-c4ccc(N5CCOCC5)cc4)cc32)n1 | 180% |
| Cc1cc(C(O)=C2C(=O)Nc3cc(Cl)c(-c4ccc(OCCCO)cc4)cc32)on1 | 185% |
| Cc1cc(C(O)=C2C(=O)Nc3cc(Cl)c(-c4ccc(Cl)cc4)cc32)on1 | 134% |
| COc1cc(C(O)=C2C(=O)Nc3cc(Cl)c(-c4ccc(OCCCN(C)C)cc4)cc32)on1 | 181% |
| Cc1cc(C(O)=C2C(=O)Nc3cc(Cl)c(-c4ccc(C#N)cc4)cc32)on1 | 133% |
